# System: OVCAR-4 ovarian
# protocol text: NCI-60 one-dose screen, 48 h (100 = growth as untreated, 0 = no growth, -100 = all killed)
# assay conditions: 10 µM unless noted
Compounds without any hit were thinned out: in the full panel of roughly 83,000, 20% have a hit. Active and inactive are the calls of the source. How the source made its calls: active means growth percent below 10; inactive means the rest.
The entries below come with measured growth values attached.
outcome measure: growth

>>> result("CCN(CC)CCO/N=C1\\CC(c2ccc(OC)c(OC)c2)Oc2ccccc21 (stereo unspecified)")
"96.5% (inactive)"
>>> result("CC1(C)CC(=O)NC1=O")
"102% (inactive)"
>>> result("O=[N+]([O-])c1cccc(N=Cc2ccccc2)c1")
"111% (inactive)"
>>> result("COc1ccc(COC=O)cc1")
"107% (inactive)"
>>> result("CN1C2C=CC(=O)C1C1C(=O)N(c3ccccc3)C(=O)C12 (stereo unspecified)")
"76.4% (inactive)"
>>> result("CCOC(=O)c1ccncc1")
"117% (inactive)"
>>> result("COC(=O)c1nc(=S)[nH]c(C(=O)OC)c1C(=O)c1ccc(OC)cc1")
"112% (inactive)"
>>> result("CC(=O)c1cccc(OC(=O)c2ccccc2)c1")
"92.7% (inactive)"
>>> result("NCCSSC/C=C\\CSSCCN")
"103% (inactive)"
>>> result("COC(=O)c1nc(=S)[nH]c(C(=O)OC)c1C(=O)c1ccccc1")
"106% (inactive)"
>>> result("Cc1cc(=NO)cc(C)n1O")
"106% (inactive)"
>>> result("COc1ccc(/C=N/NC(N)=S)cc1")
"89.8% (inactive)"
>>> result("NNC(=O)Nc1ccccc1")
"104% (inactive)"
>>> result("CCOC(=O)c1ccc(N2C(=O)C(Cl)(c3ccccc3)C2c2ccco2)cc1 (stereo unspecified)")
"90.4% (inactive)"
>>> result("CC(=O)C[n+]1ccccc1Sc1ccc(Cl)cc1")
"93.7% (inactive)"
>>> result("O=C1C2=C(Nc3cc(Cl)ccc3N2)OC1c1c[nH]c2ccc(COc3ccccc3)cc12 (stereo unspecified)")
"31.8% (inactive)"
>>> result("Nc1ccc2ccc(NS(=O)(=O)N3CCCCC3)cc2c1")
"39.2% (inactive)"
>>> result("Cc1cnc(N)s1")
"103% (inactive)"
>>> result("C/C(=C\\c1ccccc1)C(O)C(=O)c1nc2ccc([N+](=O)[O-])cc2[nH]c1=O (stereo unspecified)")
"114% (inactive)"
>>> result("CCCCNC(=O)c1ccccc1C")
"104% (inactive)"
>>> result("CCc1ccc(OC(=O)CCl)cc1")
"95.6% (inactive)"
>>> result("CCN(CC)C(=S)SCCO")
"113% (inactive)"
>>> result("O=C(OCc1ccccc1)c1ccccc1")
"108% (inactive)"
>>> result("S=c1nn[nH]n1C1CCCCC1")
"109% (inactive)"
>>> result("CCNC1=CC(=O)c2ncccc2C1=O")
"47.1% (inactive)"
>>> result("CN(C)CC(CN(C)C)C(O)c1ccccc1 (stereo unspecified)")
"102% (inactive)"
>>> result("COC(=O)CCOc1ccccc1")
"92.8% (inactive)"
>>> result("O=C(c1ccc(Cl)cc1)C1C(c2ccccc2)C1[N+](=O)[O-] (stereo unspecified)")
"99% (inactive)"
>>> result("O=C(N=C1C(=O)C2(CCCCC2)C2(N=C(c3ccccc3)OC2=O)C12CCCCC2)c1ccccc1 (stereo unspecified)")
"73.8% (inactive)"
>>> result("CC(=O)Nc1cscc1NC(C)=O")
"100% (inactive)"
>>> result("CN(C)C(=S)N(C)C")
"101% (inactive)"
